testedOn: T1, Antibody 178-09_His B.1.1.7 (27080) (SARS-CoV-2, UniProt P0DTC2 14-685)
T1 construct: domain: S1; also called TB178-9
protocol: Carterra SPR
measuredAttribute: pKd
Formally, pKd is defined as -log10 of the concentration c, with c in mol/L.

Check out these entries, answers already filled in.
INSERT INTO results (binder, testresult) VALUES
  ('3-28 (VHH, not shown: a dimerising Fc or GST) VHH: EVQLVESGGGLVQPGGSLRLSCAASGFTFRRYDMGWFRQAPGKEREFVSAISGGLAYYADSVKGRFTISADNSKNTAYLQMNSLKPEDTAVYYCAVDLSGDAVYDWGQGTLVTVSS', 7.78),
  ('7-09 (VHH, also called 7-9) VHH: EVQLVESGGGLVQPGGSLRLSCAASGGTFSSIGMGWFRQAPGKEREFVAAISWDGGATAYADSVKGRFTISADNSKNTAYLQMNSLKPEDTAVYYCAKEDVGKPFDWGQGTLVTVSS', 7.63),
  ('7-26 (VHH) VHH: EVQLVESGGGLVQPGGSLRLSCAASGSTFSINAMGWFRQAPGKEREFVAGITSSGGYTNYADSVKGRFTISADNSKNTAYLQMNSLKPEDTAVYYCAADGVPEYSDYASGPVWGQGTLVTVSS', 7.64);

Quick one: pKd of 7-37 (VHH) VHH: EVQLVESGGGLVQPGGSLRLSCAASGSTLSINAMGWFRQAPGKEREFVAGITRSGSVTNYADSVKGRFTISADNSKNTAYLQMNSLKPEDTAVYYCAADGVPEYSDYASGPVWGQGTLVTVSS ?
7.75

Quick one: pKd of 3-31 (VHH, also called 3-31_ExpiCHO) VHH: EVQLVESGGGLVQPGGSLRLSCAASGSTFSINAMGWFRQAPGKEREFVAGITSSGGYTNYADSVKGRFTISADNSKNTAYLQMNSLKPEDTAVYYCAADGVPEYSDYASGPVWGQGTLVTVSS ?
7.79

Quick one: pKd of 7-30 (VHH, not shown: a dimerising Fc or GST) VHH: EVQLVESGGGLVQPGGSLRLSCAASGRTFSMHAMGWFRQAPGKEREFVASISSQGRTNYADSVKGRFTISADNSKNTAYLQMNSLKPEDTAVYYCAAEVRNGSDYLPIDWGQGTLVTVSS ?
7.49

Quick one: pKd of 7-14 (VHH) VHH: EVQLVESGGGLVQPGGSLRLSCAASGSTFSINAMGWFRQAPGKEREFVAGISRGGTTNYADSVKGRFTISADNSKNTAYLQMNSLKPEDTAVYYCAADGVPEYSDYASGPVWGQGTLVTVSS ?
7.72
